# Test system: Escherichia coli TOP10;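 also: peptides expressed intracellularly from a pBAD plasmid library in pooled LB shake-flask culture, induced with 0.3% L-arabinose, DNA abundance read by NGS, three biological replicates, DESeq2 with apeglm shrinkage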
# protocol.description: shrunken log2 fold change of peptide-encoding DNA abundance (4.5 h post-induction vs induction); higher = less antimicrobial activity (less host growth inhibition)
# measurement.setup: time post-induction: 4.5 h; library: site-saturation at positions 5, 18, 19, 20
Assign shrunken log2 fold change to each entry below.
Just the number.

Ask: // shrunken log2 fold change lookup, key: RRIRNRPPRLPRPRPRPWMYPRP
Result: 0.0204

Ask: I have this sequence here, RRIRSRPPRLPRPRPRPEGSPRP , and I need its recorded shrunken log2 fold change.
Result: 0.223

Ask: Dear colleague, I am looking for the recorded shrunken log2 fold change of the following sequence: RRIRKRPPRLPRPRPRPVERPRP
Result: 0.204

Ask: What value of shrunken log2 fold change has been recorded for this entry: RRIRIRPPRLPRPRPRPSVPPRP
Result: -0.835

Ask: # input sequence: RRIRFRPPRLPRPRPRPYPGPRP ; wanted: its shrunken log2 fold change
Result: 0.00399
